Biological target: human RIP1 kinase domain (2-375) (Homo sapiens (Human))
Assay: biochemical
Conditions: tight-binding apparent inhibition constant (Ki app, Morrison equation), 50 nM enzyme, 50 μM ATP, 2 hours incubation
pKi: −log10 of the molar value.
Decision: pKi >= 7 yields Criterion met, all other cases yield Criterion not met.

Record excerpt, results attached:
# Molecule, Assigned Category
data = [
    ("CC1(C(=O)c2nc3n(n2)[C@H](c2ccccc2)C[C@@H]3F)CC1 (racemic)", "Criterion met"),
    ("O=C(c1nc2n(n1)[C@@H](c1ccccc1)C[C@H]2F)C1CCC1 (racemic)", "Criterion met"),
    ("O=C(c1nc2n(n1)[C@H](c1ccccc1)C[C@@H]2F)C1(CO)CC1 (racemic)", "Criterion met"),
]

*Q* Is pKi at least 7? Consider CCC(=O)c1nc2n(n1)[C@H](c1ccccc1F)CC2 (racemic)
*A* Criterion met

*Q* Is pKi at least 7? Consider CC(C)(C#N)C(=O)c1nc2n(n1)[C@H](c1ccccc1)C[C@@H]2F (racemic)
*A* Criterion met

*Q* Is pKi at least 7? Consider Cn1cc(C(=O)c2nc3n(n2)[C@@H](c2ccccc2)C[C@H]3F)cn1 (stereo in doubt) [Example 48]
*A* Criterion not met

###

// pKi lookup, one value per entry
Molecular target: human RIP1 kinase domain (2-375) (Homo sapiens (Human), UniProt Q13546)
Sequence (Q13546 2-375): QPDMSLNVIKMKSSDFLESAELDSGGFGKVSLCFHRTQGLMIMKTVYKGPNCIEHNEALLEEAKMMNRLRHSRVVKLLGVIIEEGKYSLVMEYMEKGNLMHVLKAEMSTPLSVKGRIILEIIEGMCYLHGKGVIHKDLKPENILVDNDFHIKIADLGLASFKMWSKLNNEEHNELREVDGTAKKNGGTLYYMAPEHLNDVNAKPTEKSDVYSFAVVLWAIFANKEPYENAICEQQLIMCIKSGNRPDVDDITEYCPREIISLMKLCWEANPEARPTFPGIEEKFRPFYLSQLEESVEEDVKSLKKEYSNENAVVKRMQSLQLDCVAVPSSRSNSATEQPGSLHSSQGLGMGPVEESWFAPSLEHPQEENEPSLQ
Assay: biochemical
Conditions: RIP1 kinase inhibition, tight-binding apparent Ki, 50 nM enzyme, 50 μM ATP, 2 hours incubation
Units for pKi: none; it is -log10 of a concentration expressed in mol/L.

# Molecule, Measured Endpoint, Endpoint Result
measured = [
    ("O=C(CC1CCOCC1)c1nc2n(n1)[C@H](c1ccccc1)C[C@@H]2F (racemic)", "pKi", 7.49),
    ("O=C(c1nc2n(n1)[C@H](c1ccccc1F)CC2)C1CC1 (racemic)", "pKi", 8.00),
    ("O=C(c1nc2n(n1)[C@H](c1ccccc1)C[C@@H]2F)[C@@H]1C[C@@H]2CC[C@H]1O2 (racemic)", "pKi", 6.85),
    ("O=C(c1nc2n(n1)[C@H](c1ccccc1)C[C@@H]2F)[C@@H]1C[C@H]1C(F)(F)F (racemic)", "pKi", 7.30),
    ("O=C(c1nc2n(n1)[C@H](c1ccccc1)C[C@@H]2F)[C@H](O)C(F)(F)F (racemic)", "pKi", 6.66),
]

*Q* # input molecule: [2H]C1([2H])C[C@@H](c2ccccc2)n2nc(C(=O)C3CC3)nc21 (single isomer, unassigned) ; wanted: its pKi
*A* 7.74

*Q* # input molecule: CCC1(C(=O)c2nc3n(n2)[C@H](c2ccccc2)C[C@@H]3F)CC1 (racemic) ; wanted: its pKi
*A* 8.40

*Q* # input molecule: O=C(c1nc2n(n1)[C@H](c1ccccc1)C[C@@H]2F)C1CCOC1 (mixture of isomers) ; wanted: its pKi
*A* 8.10

*Q* # input molecule: O=C(COC(F)(F)F)c1nc2n(n1)[C@H](c1ccccc1)C[C@@H]2F (racemic) ; wanted: its pKi
*A* 8.05

*Q* # input molecule: O=C(c1nc2n(n1)[C@H](c1ccccc1)C[C@@H]2F)[C@H]1C[C@@H]1C(F)(F)F (racemic) ; wanted: its pKi
*A* 8.52

*Q* # input molecule: [2H][C@H]1C[C@@H](c2ccccc2)n2nc(C(=O)C3CC3)nc21 (single isomer, unassigned) ; wanted: its pKi
*A* 8.09

*Q* # input molecule: O=C(c1nc2n(n1)[C@H](c1ccccc1)C[C@@H]2F)C1CCOCC1 (racemic) ; wanted: its pKi
*A* 7.24

*Q* # input molecule: C[C@H]1C[C@@H]1C(=O)c1nc2n(n1)[C@H](c1ccccc1)C[C@@H]2F (mixture of isomers) ; wanted: its pKi
*A* 8.43

*Q* # input molecule: N#C[C@@H]1C[C@H]1C(=O)c1nc2n(n1)[C@H](c1ccccc1)C[C@@H]2F (mixture of isomers) ; wanted: its pKi
*A* 7.89

*Q* # input molecule: CC(F)(F)[C@@H]1C[C@H](F)c2nc(C(=O)C3CC3)nn21 (racemic) ; wanted: its pKi
*A* 6.44

*Q* # input molecule: O=C(c1nc2n(n1)[C@H](c1ccccc1)C[C@@H]2F)[C@H]1CCCN1 (racemic) ; wanted: its pKi
*A* 6.19

*Q* # input molecule: N#CC1CC1C(=O)c1nc2n(n1)[C@H](c1ccccc1)C[C@@H]2F (mixture of isomers) ; wanted: its pKi
*A* 6.80

*Q* # input molecule: O=C(CC1CCCCO1)c1nc2n(n1)[C@H](c1ccccc1)C[C@@H]2F (mixture of isomers) ; wanted: its pKi
*A* 6.74

*Q* # input molecule: O=C(c1nc2n(n1)[C@H](c1ccccc1)C[C@@H]2F)[C@]12COC[C@H]1C2 (racemic) ; wanted: its pKi
*A* 6.64

Data credit: patent US11098058B2
